target: recombinant His-tag Y220C p53 DNA binding domain (Homo sapiens, UniProt P04637, Y220C); construct: Y220C p53 DBD protein (amino acids #94-312); made in house; assay: TR-FRET DNA binding assay (SC150); type: biochemical; details: Table 2; concentration required to increase DNA binding by 1.5-fold
MEASUREMENT_LABEL: SC150 (nM)
Give bare numbers, in nM.

# count of solved cases: 4
COc1cc(S(C)(=O)=O)ccc1NCC#Cc1cc2c(N[C@@H]3CCN(C)C[C@H]3F)cccc2n1CC(F)(F)F (racemic) = 20
COc1cc(S(C)(=O)=O)ccc1NCC#Cc1cc2c(N[C@@H]3CCN(C)C[C@@H]3F)cccc2n1CC(F)(F)F (racemic) [Compound 20] = 9
COc1cc(S(C)(=O)=O)ccc1NCC#Cc1cc2c(N[C@H]3CCN(C)C[C@H]3F)cccc2n1CC(F)(F)F = 20
COc1cc(S(C)(=O)=O)ccc1NCC#Cc1cc2c(N[C@@H]3CCN(C)C[C@@H]3F)cccc2n1CC(F)(F)F [Compound 22] = 8

Continue with the next compound.
Inquiry: Which measured SC150 value corresponds to "COc1cc(S(C)(=O)=O)ccc1NCC#Cc1cc2c(NC3CCN(C)CC3)cccc2n1CC(F)(F)F" ?
Reply text: 23
